This section presents molecules with their documented growth values.
- System: MDA-MB-468 breast
- Test name: NCI-60 one-dose screen, 48 h (100 = growth as untreated, 0 = no growth, -100 = all killed)
- Condition info: 10 µM unless noted
Compounds without any hit were thinned out: in the full panel of roughly 83,000, 20% have a hit. Active and inactive are the calls of the source. How the source made its calls: active means growth percent below 10; inactive means the rest.

// worked examples, growth included
O=C(O)c1ccc(-c2ccc(/C=N/NC(=O)c3[nH]c4ccc(Br)cc4c3-c3ccccc3)o2)cc1 :: -12.4% (active)
COc1c(F)ccc(C(=O)Nc2ccc3nc(NC(=O)C4CCCN(S(=O)(=O)c5ccc(Cl)cc5)C4)sc3c2)c1F (stereo not drawn) :: 80.2% (inactive)

// moving on: another record for growth
Look at this molecule and give its reported growth. COc1cc(-c2ccc(/C=N/NC(=O)c3[nH]c4ccc(Br)cc4c3-c3ccccc3)s2)cc(OC)c1OC
96.7% (inactive)
